Test system: HCT-116 colon
RUN DESCRIPTION: NCI-60 one-dose screen, 48 h
ASSAY CONDITIONS: 10 µM unless noted
This is part of a sample that, as a whole, favours compounds with a hit. Of some 83,000 tested, about 20% had one in any assay. Activity calls are given as the source filed them. How the source made its calls: active means growth percent below 10; inactive means the rest.
Entry note: the call must match one of 1 for active, -1 for inactive

C=C(C)[C@@H]1CC[C@]2(C(=O)OC)CC[C@]3(C)[C@H](CC[C@@H]4[C@@](C)(CC/C(N)=N/O)[C@H](C(=C)C)CC[C@]43C)[C@@H]12 : -1
Cn1cc(-c2csc(-c3cn(CCN)c4ccc(F)cc34)n2)c2cccnc21 : -1
Cn1cc(-c2csc(-c3cn(CCCN4CCCCC4)c4ccccc34)n2)c2cccnc21 : 1
Cc1ccc(-c2ccc(Nc3ccccc3)nn2)cc1S(N)(=O)=O : -1

We now examine a further compound.
IN: Outcome logged for N#CC1=C(N)Oc2ccc3ccccc3c2C1c1ccccc1Cl (stereo not given) in this assay:
OUT: -1

###

Tested on: HS 578T breast
RUN DESCRIPTION: NCI-60 one-dose screen, 48 h (100 = growth as untreated, 0 = no growth, -100 = all killed)
ASSAY CONDITIONS: 10 µM unless noted
This is part of a sample that, as a whole, favours compounds with a hit. Of some 83,000 tested, about 20% had one in any assay.
MEASURED ATTRIBUTE: growth (%)
# number only, unit % dropped from output

Answered cases to consult:
O=S(=O)(NCCNc1cc(-c2cn(-c3ccccc3)nc2-c2cccc(O)c2)ccn1)c1ccc(Cl)cc1 : 21.2
C#CCC(C)(O)/C=C/C1=C(C)CCCC1(C)C (stereo not drawn) : 108
NC1=NN=C2N(N)C(=O)c3cnn(-c4ccccc4)c3N2c2nc(-c3ccccc3)cc(-c3ccccc3)c21 : 101
CCOc1ccc(NC(=O)c2ccoc2COc2ccccc2)cc1 : 105
CCN1CCN(C(=O)[C@]23CCC(C)(C)C[C@H]2C2=CC[C@@H]4[C@@]5(C)CC/C(=N/O)C(C)(C)[C@@H]5CC[C@@]4(C)[C@]2(C)CC3)CC1 : 84.2
O=C(O)c1cccc2c1-c1ccc(Cl)cc1C2 : 103

IN: Any idea what growth was measured for "COc1ccc(-c2c(-c3nc4ccc(N5CCOCC5)cc4[nH]3)[nH]c(C)c2C(C)=O)cc1" ?
OUT: 22.3

IN: Another compound to check: "CC1(C)C(=O)/C(=C\c2cccnc2)C[C@]2(C)[C@H]3CC[C@@H]4[C@@H](C(=O)/C=C/c5ccncc5)CC[C@@]4(C)[C@]3(C)CC[C@@H]12"
OUT: 31.7

###

Tested on: NCI-H226 lung
RUN DESCRIPTION: NCI-60 one-dose screen, 48 h
ASSAY CONDITIONS: 10 µM unless noted
Compounds without any hit were thinned out: in the full panel of roughly 83,000, 20% have a hit. The source made the active and inactive calls. The calls were made as follows: active = growth percent below 10; inactive = the rest.
Entry note: the call must match one of true = active, false = inactive

CC1(n2nnnc2N2CCCN(c3ncccc3N)CC2)CCC1 : false
COc1ccc(-c2cc(-c3cccs3)n(N=O)c(=O)c2C#N)cc1 : false
Cc1ccc(C)c2c1CCC2C(C)C (stereo not given) : false

We now examine a further molecule.
IN: Outcome logged for "C[C@H]1[C@@H]2[C@H]3CC[C@@H]4[C@@]5(C)Cc6c([nH]c7ccccc67)C(C)(C)[C@@H]5CC[C@@]4(C)[C@]3(C)CC[C@]23CO[C@]1(C)[C@@H](C(=O)/C=C/c1ccccn1)C3" in this assay:
OUT: false
